Hello, the source for this data is patent US9283222B2, in case you need it.

Listing of entries alongside the reported pKi.
target: Recombinant Human Poly(ADP-Ribose) Polymerase (PARP), PARP-1 (Homo sapiens (Human), UniProt P09874); details: read-out: PARP-1 (Ki); Table 1; text calls the values EC50s
Sequence (P09874 whole entry): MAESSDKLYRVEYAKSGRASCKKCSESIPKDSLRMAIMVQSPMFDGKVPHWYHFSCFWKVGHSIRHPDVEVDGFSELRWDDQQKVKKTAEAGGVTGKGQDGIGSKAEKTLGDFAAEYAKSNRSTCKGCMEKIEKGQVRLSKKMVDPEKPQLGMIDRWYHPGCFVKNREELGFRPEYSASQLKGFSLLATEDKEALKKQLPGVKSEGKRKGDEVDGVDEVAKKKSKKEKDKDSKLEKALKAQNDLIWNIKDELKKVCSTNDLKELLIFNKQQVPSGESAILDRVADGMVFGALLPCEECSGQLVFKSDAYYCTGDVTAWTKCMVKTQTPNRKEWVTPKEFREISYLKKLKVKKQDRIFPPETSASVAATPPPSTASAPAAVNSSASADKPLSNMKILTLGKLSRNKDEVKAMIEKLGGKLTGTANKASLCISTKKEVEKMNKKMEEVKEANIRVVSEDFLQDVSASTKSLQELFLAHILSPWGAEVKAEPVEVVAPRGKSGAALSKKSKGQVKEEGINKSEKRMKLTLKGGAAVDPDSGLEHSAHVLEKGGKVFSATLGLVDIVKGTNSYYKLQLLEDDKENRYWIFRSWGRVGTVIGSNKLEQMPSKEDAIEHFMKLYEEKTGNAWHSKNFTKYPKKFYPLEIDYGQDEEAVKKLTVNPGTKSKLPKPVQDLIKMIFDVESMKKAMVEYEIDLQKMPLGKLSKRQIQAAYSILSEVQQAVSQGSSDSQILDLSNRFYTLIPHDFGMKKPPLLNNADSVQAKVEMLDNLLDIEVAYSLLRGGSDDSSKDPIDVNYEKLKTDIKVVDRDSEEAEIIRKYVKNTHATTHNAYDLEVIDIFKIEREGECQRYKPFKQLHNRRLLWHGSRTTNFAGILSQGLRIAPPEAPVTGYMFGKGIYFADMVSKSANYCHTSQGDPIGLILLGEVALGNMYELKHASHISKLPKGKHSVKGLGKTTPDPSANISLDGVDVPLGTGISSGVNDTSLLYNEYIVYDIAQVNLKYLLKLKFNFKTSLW
pKi: −log10 of the molar value.

{"COMPOUND": "O=C1C2CC2C(=O)N1c1cc(Cc2n[nH]c(=O)c3c2CCCC3)ccc1F (stereo not shown)", "pKi": 9.15}
{"COMPOUND": "O=C(c1cc(Cc2n[nH]c(=O)c3c2CCCC3)ccc1F)N1CCN(C(=O)N2CCOCC2)CC1", "pKi": 8.70}
{"COMPOUND": "CCOc1ccc(CCNC(=O)c2cccc(Cc3n[nH]c(=O)c4c3CCCC4)c2)cc1OC", "pKi": 7.32}
{"COMPOUND": "Cc1ccc(CCNC(=O)c2cccc(Cc3n[nH]c(=O)c4c3CCCC4)c2)c(C)c1", "pKi": 7.09}
{"COMPOUND": "CC(C)Oc1ccc(C(=O)Nc2cccc(Cc3n[nH]c(=O)c4c3CCCC4)c2)cc1", "pKi": 6.73}
{"COMPOUND": "O=C(c1cc(Cc2n[nH]c(=O)c3c2CCCC3)ccc1F)N1CCN(CCN2CCOCC2)CC1", "pKi": 8.40}
{"COMPOUND": "NC(=O)C1CCCN(C(=O)c2cc(Cc3n[nH]c(=O)c4c3CCCC4)ccc2F)C1 (stereo not shown)", "pKi": 8.52}
{"COMPOUND": "O=C1CCCN1c1cccc(Cc2n[nH]c(=O)c3c2CCCC3)n1", "pKi": 7.33}
{"COMPOUND": "O=C(c1cc(Cc2n[nH]c(=O)c3c2NCCC3)ccc1F)N1CCC(O)CC1", "pKi": 8.52}
{"COMPOUND": "O=C(c1ccc(Cl)cn1)N1CCN(C(=O)c2cc(Cc3n[nH]c(=O)c4c3NCCC4)ccc2F)CC1", "pKi": 8.89}
{"COMPOUND": "O=C1CCC(C(=O)N2CCN(C(=O)c3cc(Cc4n[nH]c(=O)c5c4CCCC5)ccc3F)CC2)N1 (stereo not shown)", "pKi": 8.92}
{"COMPOUND": "COC(=O)c1cccc(CCc2n[nH]c(=O)c3c2CCCC3)c1", "pKi": 7.24}
{"COMPOUND": "CCCc1ccc(C(=O)Nc2cccc(Cc3n[nH]c(=O)c4c3CCCC4)c2)cc1", "pKi": 6.60}
{"COMPOUND": "CN(C)S(=O)(=O)Nc1cccc(Cc2n[nH]c(=O)c3c2CCCC3)c1", "pKi": 6.41}
{"COMPOUND": "O=C(c1cc(Cc2n[nH]c(=O)c3c2CCCC3)ccc1F)N1CCN(C(=O)N2CCCCC2)CC1", "pKi": 8.72}
{"COMPOUND": "NC(=O)C1CCN(C(=O)c2cc(Cc3n[nH]c(=O)c4c3NCCC4)ccc2F)CC1", "pKi": 8.70}
{"COMPOUND": "CC(C)(C)NC(=O)Nc1cc(Cc2n[nH]c(=O)c3c2CCCC3)ccc1F", "pKi": 6.26}
{"COMPOUND": "O=C(c1ccc2[nH]cnc2c1)N1CCN(C(=O)c2cc(Cc3n[nH]c(=O)c4c3NCCC4)ccc2F)CC1", "pKi": 9.00}
{"COMPOUND": "O=C(Nc1ccc2cn[nH]c2c1)c1cccc(Cc2n[nH]c(=O)c3c2CCCC3)c1", "pKi": 7.25}
{"COMPOUND": "CCN(CC)C(=O)C1CCCN(C(=O)c2cc(Cc3n[nH]c(=O)c4c3CCCC4)ccc2F)C1 (stereo not shown)", "pKi": 8.22}
{"COMPOUND": "O=C(c1cncnc1)N1CCN(C(=O)c2cc(Cc3n[nH]c(=O)c4c3CCCC4)ccc2F)CC1", "pKi": 8.77}
{"COMPOUND": "Cc1ccc(NC(=O)c2cccc(Cc3n[nH]c(=O)c4c3CCCC4)c2)cc1Br", "pKi": 6.71}

----------
target: Recombinant Human Poly(ADP-Ribose) Polymerase (PARP), PARP-1 (Homo sapiens (Human), UniProt P09874); settings: read-out: PARP-1 (Ki); Table 1; text calls the values EC50s
Listing of entries alongside the reported Ki.
OUTCOME_MEASURE: Ki

{"SMI": "CS(=O)(=O)Nc1cccc(-c2cc(CCc3n[nH]c(=O)c4c3CCCC4)ccc2F)c1", "RESULT": "257 nM"}
{"SMI": "O=C(c1cccc(Cc2n[nH]c(=O)c3c2CCCC3)c1)N1CCN(c2ccccc2Cl)CC1", "RESULT": "10 nM"}
{"SMI": "O=C(c1cccc(Cc2n[nH]c(=O)c3c2CCCC3)c1)N1CCN(c2ncccn2)CC1", "RESULT": "0.8 nM"}

----------
Listing of entries alongside the reported Ki.
target: Recombinant Human Poly(ADP-Ribose) Polymerase (PARP), PARP-1 (Homo sapiens (Human), UniProt P09874); conditions: read-out: PARP-1 (Ki); Table 1; text calls the values EC50s

{"SMI": "COc1ccc(NC(=O)c2cccc(Cc3n[nH]c(=O)c4c3CCCC4)c2)cc1O", "Ki / nM": 59}
{"SMI": "CC(C)(C)C(=O)N1CCN(C(=O)c2cc(Cc3n[nH]c(=O)c4c3CCCC4)ccc2F)CC1", "Ki / nM": 1}
{"SMI": "O=C(NCCN1CCCCC1)c1cccc(Cc2n[nH]c(=O)c3c2CCCC3)c1", "Ki / nM": 40}
{"SMI": "O=C(c1cccc(Cc2n[nH]c(=O)c3c2CCCC3)c1)N1CCN(c2ccccc2)CC1", "Ki / nM": 3}

----------
molecular target: Recombinant Human Poly(ADP-Ribose) Polymerase (PARP), PARP-1 (Homo sapiens (Human)); settings: read-out: PARP-1 (Ki); Table 1; text calls the values EC50s
pKi: −log10 of the molar value.
OUTCOME_MEASURE: pKi

{"COMPOUND": "O=C(c1cc(Cc2n[nH]c(=O)c3c2NCCC3)ccc1F)N1CCN(c2ncncn2)CC1", "OUTCOME_MEASURE": "pKi", "NUMERIC_READOUT": 9.05}
{"COMPOUND": "O=C(CCC(=O)c1cccs1)Nc1cccc(Cc2n[nH]c(=O)c3c2CCCC3)c1", "OUTCOME_MEASURE": "pKi", "NUMERIC_READOUT": 8.30}
{"COMPOUND": "O=C(NC1CCCNC1)c1cccc(Cc2n[nH]c(=O)c3c2CCCC3)c1 (stereo not shown)", "OUTCOME_MEASURE": "pKi", "NUMERIC_READOUT": 7.22}
{"COMPOUND": "O=C(Nc1cccc(Cc2n[nH]c(=O)c3c2CCCC3)n1)c1ccccc1", "OUTCOME_MEASURE": "pKi", "NUMERIC_READOUT": 6.54}
{"COMPOUND": "O=C1CCCC(=O)N1c1cc(Cc2n[nH]c(=O)c3c2CCCC3)ccc1F", "OUTCOME_MEASURE": "pKi", "NUMERIC_READOUT": 9.10}
{"COMPOUND": "O=C(c1cc(Cc2n[nH]c(=O)c3c2NCCC3)ccc1F)N1CCN(CCN2CCCCC2)CC1", "OUTCOME_MEASURE": "pKi", "NUMERIC_READOUT": 8.10}
{"COMPOUND": "O=C1CCCN1c1cccc(Cc2n[nH]c(=O)c3c2CCCC3)c1", "OUTCOME_MEASURE": "pKi", "NUMERIC_READOUT": 7.41}

----------
biological target: Recombinant Human Poly(ADP-Ribose) Polymerase (PARP), PARP-1 (Homo sapiens (Human), UniProt P09874); conditions: read-out: PARP-1 (Ki); Table 1; text calls the values EC50s
Listing of entries alongside the reported log10(Ki).
OUTCOME_MEASURE: log10(Ki) (log10 of the value in nM)

{"COMPOUND": "O=C(CCc1ccccc1Cl)Nc1cccc(Cc2n[nH]c(=O)c3c2CCCC3)c1 [Example 168]", "NUMERIC_READOUT": 2.10}
{"COMPOUND": "O=C(NC1CCCCC1)c1cc(Cc2n[nH]c(=O)c3c2CCCC3)ccn1 [Example 77]", "NUMERIC_READOUT": 2.29}
{"COMPOUND": "CC(C)c1ccccc1NC(=O)c1cccc(Cc2n[nH]c(=O)c3c2CCCC3)c1 [Example 333]", "NUMERIC_READOUT": 2.95}
{"COMPOUND": "Cc1ccsc1C(=O)Nc1cccc(Cc2n[nH]c(=O)c3c2CCCC3)c1 [Example 198]", "NUMERIC_READOUT": 2.61}
{"COMPOUND": "O=C(c1cscn1)N1CCCN(C(=O)c2cc(Cc3n[nH]c(=O)c4c3NCCC4)ccc2F)CC1 [Example 703]", "NUMERIC_READOUT": 0.36}
{"COMPOUND": "O=C(OCc1ccccc1)N1CCN(C(=O)c2cc(Cc3n[nH]c(=O)c4c3NCCC4)ccc2F)CC1 [Example 613]", "NUMERIC_READOUT": 0.26}
{"COMPOUND": "O=C(c1cccc(Cc2n[nH]c(=O)c3c2CCCC3)c1)N1CCN(c2ccccn2)CC1 [Example 441]", "NUMERIC_READOUT": 0.48}
{"COMPOUND": "CSc1ccc(NC(=O)c2cccc(Cc3n[nH]c(=O)c4c3CCCC4)c2)cc1 [Example 361]", "NUMERIC_READOUT": 1.88}
{"COMPOUND": "O=C(c1cc(Cc2n[nH]c(=O)c3c2CCCC3)ccc1F)N1CCN(c2ccccc2Cl)CC1 [Example 517]", "NUMERIC_READOUT": 0.70}
{"COMPOUND": "O=C(Nc1cccc(Cc2n[nH]c(=O)c3c2CCCC3)c1)[C@H](O)CCc1ccccc1 [Example 164]", "NUMERIC_READOUT": 1.45}
{"COMPOUND": "CC(C)NC(=O)c1cc(Cc2n[nH]c(=O)c3c2CCCC3)ccn1 [Example 76]", "NUMERIC_READOUT": 2.67}
{"COMPOUND": "O=C(c1ccccn1)N1CCN(C(=O)c2cc(Cc3n[nH]c(=O)c4c3CCCC4)ccc2F)CC1 [Example 730]", "NUMERIC_READOUT": 0.11}
{"COMPOUND": "O=C(c1ccccn1)N1CCCN(C(=O)c2cc(Cc3n[nH]c(=O)c4c3NCCC4)ccc2F)CC1 [Example 684]", "NUMERIC_READOUT": 0.45}
{"COMPOUND": "CC(C)(C)OC(=O)N1CCC(NC(=O)c2cc(Cc3n[nH]c(=O)c4c3NCCC4)ccc2F)CC1 [Example 699]", "NUMERIC_READOUT": 1.87}
{"COMPOUND": "CN(C)C(=O)c1ccc(-c2cc(Cc3n[nH]c(=O)c4c3CCCC4)ccc2F)cc1 [Example 253]", "NUMERIC_READOUT": 2.36}
{"COMPOUND": "CCOC(=O)N1CCN(C(=O)c2cc(Cc3n[nH]c(=O)c4c3NCCC4)ccc2F)CC1 [Example 666]", "NUMERIC_READOUT": 0.18}
{"COMPOUND": "CN(C(=O)c1cc(Cc2n[nH]c(=O)c3c2NCCC3)ccc1F)C1CCN(C(=O)[C@@H]2CSCN2)CC1 [Example 716]", "NUMERIC_READOUT": 0.70}
{"COMPOUND": "C[C@H](NC(=O)Nc1cc(Cc2n[nH]c(=O)c3c2CCCC3)ccc1F)C(=O)O [Example 627]", "NUMERIC_READOUT": 1.93}
{"COMPOUND": "COc1ccc(NC(C)=O)cc1NC(=O)c1cccc(Cc2n[nH]c(=O)c3c2CCCC3)c1 [Example 357]", "NUMERIC_READOUT": 2.60}
{"COMPOUND": "CN1CCN(C(=O)Nc2cc(Cc3n[nH]c(=O)c4c3CCCC4)ccc2F)CC1 [Example 584]", "NUMERIC_READOUT": 1.83}
{"COMPOUND": "O=C(Nc1ccc(Cc2n[nH]c(=O)c3c2CCCC3)cn1)c1cccnc1 [Example 108]", "NUMERIC_READOUT": 2.76}
{"COMPOUND": "CO[C@H](C(=O)Nc1cccc(Cc2n[nH]c(=O)c3c2CCCC3)c1)c1ccccc1 [Example 152]", "NUMERIC_READOUT": 2.87}
{"COMPOUND": "O=C(c1cccc(Cc2n[nH]c(=O)c3c2CCCC3)c1)N1CCN(C(=O)c2ccno2)CC1 [Example 60]", "NUMERIC_READOUT": 0.48}
{"COMPOUND": "CC(C)(C)c1ccc(C(=O)Nc2cccc(Cc3n[nH]c(=O)c4c3CCCC4)c2)cc1 [Example 233]", "NUMERIC_READOUT": 2.20}
{"COMPOUND": "O=C(Nc1nccs1)c1cccc(Cc2n[nH]c(=O)c3c2CCCC3)c1 [Example 319]", "NUMERIC_READOUT": 1.97}
